Tested on: laser-injured cornea
ASSAY REMARKS: Corneal observation (opacity, edema, ulcer formation, ocular surface) via gross images after laser ablation and intracameral injection
Format: in vivo, mice (nT/nG transgenic)
TEST CONTEXT: laser-injured cornea after treatment; single intracameral injection 0.5 μl; Day 2; BSS group: slight ulcer formation
Excerpt: nT/nG transgenic mice (Jax #023035; the Jackson Laboratory), having a Cre-reporter allele comprising a cell nuclear-targeted tandem dimerTomato (tdTomato; an orange fluorescent protein) and an enhanced green fluorescent protein (EGFP) (Prigge, Wiley et al., 2013; “Nuclear double-fluorescent reporter for in vivo and ex vivo analyses of biological transitions in mouse nuclei.”), were used in the present study for investigating the cell density and the healing process in corneal endothelium. […]
Where a name gives a salt, the structure may show the parent alone.
PROPERTY LABEL: Ulcer formation

COc1ccc(C[C@@H](C)NC[C@H](O)c2ccc(OS(=O)(=O)O)c(NC=O)c2)cc1 [Formoterol Sulfate] | No
COc1ccc(C[C@@H](C)NC[C@H](O)c2ccc(O[C@@H]3O[C@H](C(=O)O)[C@@H](O)[C@H](O)[C@H]3O)c(NC=O)c2)cc1 [Formoterol PG, Formoterol Phenolic Glucuronide] | No
C[C@H](N)[C@H](O)c1ccc(O)c(O)c1 [Levonordefrin, reference compound] | No

----------
Tested on: laser-injured cornea
ASSAY REMARKS: Corneal observation (opacity, edema, ulcer formation, ocular surface) via gross images after laser ablation and intracameral injection
Type: in vivo, mice (nT/nG transgenic)
TEST CONTEXT: laser-injured cornea after treatment; single intracameral injection 0.5 μl; Day 2; BSS group: mild edema
Where a name gives a salt, the structure may show the parent alone.
PROPERTY LABEL: Edema

CC1(C)C(C=C(Cl)Cl)C1C(=O)OCc1cccc(Oc2ccccc2)c1 (centres unmarked) [Permethrin, reference compound] | No
COc1ccc(C[C@@H](C)NC[C@H](O)c2ccc(OS(=O)(=O)O)c(NC=O)c2)cc1 [Formoterol Sulfate] | No
C[C@H](N)[C@H](O)c1ccc(O)c(O)c1 [Levonordefrin, reference compound] | No
CCCCCC/C=C\CCCCCCCc1cccc(O)c1O | No
COc1ccc(C(=O)Nc2ccccc2CCC2CCCCN2C)cc1 (centres unmarked) [Encainide, reference compound] | No
COc1ccc(C[C@@H](C)NC[C@H](O)c2ccc(O[C@@H]3O[C@H](C(=O)O)[C@@H](O)[C@H](O)[C@H]3O)c(NC=O)c2)cc1 [Formoterol PG, Formoterol Phenolic Glucuronide] | No
CCC(C(=O)OCCN1CCOC(c2ccccc2)C1C)c1ccccc1 (centres unmarked) [Fenbutrazate, reference compound] | No
COc1ccc(CC(C)NCC(OC2O[C@H](C(=O)O)[C@@H](O)[C@H](O)[C@H]2O)c2ccc(O)c(NC=O)c2)cc1 (some centres unmarked) [Formoterol BG, Formoterol Benzyl Glucuronide] | No
